System: SF-539
Test: NCI tumour cell line growth inhibition, 48 h
The source made the active and inactive calls. No stated cut-off is given here; in the data, active = GI50 up to about 1.1 µM and inactive = higher.
In this section, each of the molecules is paired with its reported GI50.

Query: What GI50 appears in the records for this molecule with SF-539? CCCC(=O)OC1C(CO)OC(n2cc(F)c(=O)[nH]c2=O)C1F (configuration not stated)
Result: 1.67 µM (inactive)

Query: Would you kindly repeat that for O=C(O)C12C3CCC(O3)C1(C(=O)O)C1CCC2O1 (configuration not stated) ?
Result: > 100 µM (inactive)

Query: Would you kindly repeat that for CCN1C2=NCCN2S(=O)(=O)c2ccccc21 ?
Result: > 100 µM (inactive)

* * *

System: HCT-116
Test: NCI tumour cell line growth inhibition, 48 h
The source made the active and inactive calls. No stated cut-off is given here; in the data, active = GI50 up to about 1.1 µM and inactive = higher.
Return exactly one item of active, inactive

Take a look at these entries with their results.
Compound | Assigned category
COC(=O)Nc1nc2cc(C(=O)c3cccs3)ccc2[nH]1 | active
O=[N+]([O-])c1ccc2nc(O)c(/C=C(\O)c3ccccc3)nc2c1 | inactive
CCOC(=O)c1c(SC(=O)c2ccc(C(C)(C)C)cc2)n(-c2ccccc2)c(=S)n(-c2ccccc2)c1=O | inactive

Query: Identify the outcome logged in this assay for the compound shown: CN(CCCCCl)P(=O)(OCc1ccc([N+](=O)[O-])o1)OCC1OC(n2ccc(N)nc2=O)C(O)C1O (configuration not stated)
Result: inactive

Query: Would you kindly repeat that for CC(=O)O[C@H]1C(=O)[C@@]2(C)[C@H]([C@H](OC(=O)c3ccccc3)[C@]3(O)C[C@H](OC(=O)[C@H](O)[C@@H](NC(=O)c4ccccc4)c4ccccc4C)C(C)=C1C3(C)C)[C@]1(OC(C)=O)CO[C@@H]1C[C@@H]2O ?
Result: active

The values you see were collected from ChEMBL document CHEMBL1201862.
